Numbers sourced from PubChem BioAssay (NCI).

# PROTOCOL_SUMMARY: NCI Yeast Anticancer Drug Screen. Data for the sgs1 mgt1 strain (AID 161);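 also: 0% = growth of cultures given vehicle only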
# TEST_CONTEXT: S. cerevisiae sgs1 mgt1 strain, at 5.0 µM (retest, dose inferred, filed as 0.5)
The panel holds about 79,000 compounds, 15% with a hit somewhere; the sample as a whole holds those more often. The source made the active and inactive calls. Rule as the data show it: active = growth inhibition above about 70%; inactive = the rest.
Classes used: yes = active, no = inactive

> print(dat)
                                   compound  discrete.label
1  OC(CCNCc1ccccc1)c1ccc2ccccc2c1 (stereo unspecified)              no
2                   CCCCCCSc1ncnc2[nH]ncc12              no
3                   O=C(NCCCl)Sc1ccc(Cl)cc1              no
4       CCCCOCn1c(=O)[nH]c(=O)c2cc(Br)ccc21              no
5  CCOC(=O)CC1(C(=O)OCC)c2[nH]c3ccccc3c2CCN1Cc1ccccc1 (stereo unspecified)              no
6  COc1cccc2c1C(=O)c1c(O)c3c(c(O)c1C2=O)C[C@@](O)(C(C)=O)C[C@@H]3OC1CC(OC(C)=O)C(OC(C)=O)C(C)O1 (stereo partly specified)             yes

* * *

# growth inhibition annotations
# PROTOCOL_SUMMARY: NCI Yeast Anticancer Drug Screen. Data for the sgs1 strain (AID 173);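 also: 0% = growth of vehicle-only control cultures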
# TEST_CONTEXT: S. cerevisiae sgs1 mutant, at 3.7 µM, hits give high values
This is part of a sample that, as a whole, favours compounds with a hit. Of some 79,000 tested, about 15% had one in any assay.
REPORTED_ENDPOINT: growth inhibition (%)

> print(dat)
                                    compound  number
 1  CC(=O)Nc1ccc2c(c1)Cc1cc(N=C3C=CC(=O)O3)ccc1-2      34
 2  CCOC(=O)c1cc([N+](=O)[O-])c(Sc2ncnc3nc[nH]c23)c([N+](=O)[O-])c1      13
 3              Cc1cc(C(C)(C)CC(C)(C)C)ccc1O     -38
 4  CC(C)CCCC(C)C1CCC2C3CCC4=CC(=O)/C(=C\O)CC4(C)C3CCC12C (stereo not drawn)      -1
 5              CN(C)c1nc(=Nc2cccc(Cl)c2)ss1      52
 6          O=C(COC(=O)c1ccccc1)c1ccc(Br)cc1      10
 7                    CCO/C(C)=C(/C#N)C(N)=S       3
 8             Cc1cccc(/C=N/NC(=S)N2CCCC2)n1     -21
 9  COc1nc2c(c(=O)n1C)N=C(c1ccccc1)[C@H](C(CC(=O)c1ccccc1)c1ccccc1)C(c1ccccc1)N2 (stereo partly drawn)     -10
10  Nc1ncnc2c1ncn2C1OC(CO)CC1O (stereo not drawn)       2
11             CCCCN(CCCC)C(=O)/C=C/c1ccccc1      -6
12     CCCCOP(=O)(CCCP(=O)(OCCCC)OCCCC)OCCCC      -1
13        CCOC(=O)/C(=C\c1ccc(C#N)cc1)C(C)=O      -6
